Exercise: state measured IC50 for each of the molecules provided.
- systemUnderTest: Glutamate NMDA receptor
- procedureText: Binding affinity towards PCP site of the NMDA receptor was measured by displacement of […] in […]
- Type: tissue-based, Brain

Would you please look over these solved cases?
{"columns": ["molecule", "quantity", "dataValue"],
 "data": [
  ["CN[C@@]12CCCCC1CSc1ccccc12 (some centres undefined)", "IC50", "199 nM"],
  ["CN(C)C12CCCCC1CCc1ccccc12 (centres undefined)", "IC50", "21 nM"]
]}

Batch request: IC50 for each of the following molecules.
1. NC12CCCCC1CCc1ccccc12 (single isomer, unassigned; form 2)
2. CNC12CCCCC1CC(C)(C)c1ccccc12 (centres undefined)

Key:
1: 113 nM; 2: 20800 nM

// each molecule listed below needs its IC50
1. CNC12CC=CCC1CCc1ccc(OC)cc12 (centres undefined)
2. CNC12CC=CCC1CSc1ccccc12 (centres undefined)
3. NC12CCCCC1CCc1ccccc12 (single isomer, unassigned; form 1)
4. COc1ccc2c(c1)C1(N)CC=CCC1CC2 (centres undefined)
5. CC1CC2CCCCC2(N)c2ccccc21 (centres undefined)
6. CCNC12CCCCC1CCc1ccccc12 (centres undefined)
7. CCNC12CCCCC1CSc1ccccc12 (centres undefined)

Key:
["21 nM", "69 nM", "11.3 nM", "46 nM", "508 nM", "199 nM", "523 nM"]

// each listed molecule needs a value for IC50
1. NC12CC=CCC1CCc1ccccc12 (centres undefined)
2. NC12CC=CCC1CCc1ccc(O)cc12 (centres undefined)
3. CNC12CC(O)CCC1CCc1ccccc12 (centres undefined)
4. NC12CCCCC1CSc1ccccc12 (centres undefined)
5. NC12CC=CCC1COc1ccccc12 (centres undefined)

Key:
1: 87.5 nM; 2: 28 nM; 3: 500 nM; 4: 80.6 nM; 5: 399 nM

Give IC50 for each of the items listed below.
1. COc1ccc2c(c1)C1(N)CCCCC1CC2 (centres undefined)
2. CNC12CC=CCC1COc1ccccc12 (centres undefined)
3. CN[C@]12CCCCC1CSc1ccccc12 (some centres undefined)

Key:
18 nM
122 nM
30 nM

Attribution: ChEMBL document CHEMBL1126730
